Tested on: Bacillus subtilis
Assay: Antibacterial activity against Bacillus subtilis ATCC 6633 assessed as inhibition of bacterial growth measured after 24 hrs by MH broth based assay
Type: functional
MIC for assorted compounds
Respond with the bare value in µg/mL.

Example entries and their recorded answers appear below.
# test smiles, observed property, measurement
measured = [
    ("C=C[C@]1(C)C[C@@H](OC(=O)CSc2cc[n+](CCCCCCC(=O)O)cc2)[C@]2(C)[C@H](C)CC[C@]3(CCC(=O)[C@H]32)[C@@H](C)[C@@H]1O.[I-]", "MIC", 64),
    ("C=C[C@]1(C)C[C@@H](OC(=O)CSc2cc[n+](Cc3ccc(C(=O)OC(C)(C)C)cc3)cc2)[C@]2(C)[C@H](C)CC[C@]3(CCC(=O)[C@H]32)[C@@H](C)[C@@H]1O.[I-]", "MIC", 64),
]

# input // query MIC value for entry C#CCC[n+]1ccc(SCC(=O)O[C@@H]2C[C@@](C)(C=C)[C@@H](O)[C@H](C)[C@]34CCC(=O)[C@H]3[C@@]2(C)[C@H](C)CC4)cc1.[I-]
# output 64

# input So what does the record say about MIC for C#CC[n+]1ccc(SCC(=O)O[C@@H]2C[C@@](C)(C=C)[C@@H](O)[C@H](C)[C@]34CCC(=O)[C@H]3[C@@]2(C)[C@H](C)CC4)cc1.[I-] ?
# output 32

The measurements presented in this section are drawn from ChEMBL document CHEMBL5346923.
